# System: Phospho-Rb (Ser807/811)
# assay: Phospho-Retinoblastoma (pRB) Cellular Assay
# Assay type: cell-based
# measurement.setup: Homo sapiens, OVCAR-3; NIH OVCAR3 cells, 24 hours; concentration giving 50% response
# Description: Phospho-Retinoblastoma (pRB) Cellular Assay […] Plates were sealed and incubated away from light at room temperature for at least 4 hours before reading them on an EnVision plate reader (Perkin Elmer, Waltham MA) according to the kit manufacturer's protocol. […]
Listed next: entries and their corresponding pIC50.
Note on pIC50: it is the negative log10 of concentration, concentration in mol/L.

{"molecule": "O=C1CCC(N2Cc3ccc(COC(=O)Nc4ccc(Oc5ccc(F)c(F)c5)cc4F)c(OC4CCOCC4)c3C2=O)C(=O)N1 (stereo not shown) [Example 132]", "data.value": 7.18}
{"molecule": "O=C1CCC(N2Cc3ccc(COC(=O)Nc4ccc(Oc5ccccc5)cc4)c(OC(F)F)c3C2=O)C(=O)N1 (stereo not shown) [Example 60]", "data.value": 6.30}
{"molecule": "COc1c(COC(=O)Nc2ccc(Oc3ccccc3C(F)F)cc2F)ccc2c1C(=O)N(C1CCC(=O)NC1=O)C2 (stereo not shown) [Example 86]", "data.value": 6.75}

Now look at this entry.
Request: Note pIC50 for the molecule shown: CC(C)(O)COc1c(COC(=O)Nc2ccc(Oc3ccc(F)cc3)cc2F)ccc2c1C(=O)N(C1CCC(=O)NC1=O)C2 (stereo not shown) [Example 162]
Response: 7.62
